Tested on: OV90
Experiment: Primary qHTS to identify gynecologic anti-cancer compounds using libraries of approved drugs and bioactive compounds (AID 1345084); further: nearly all actives have a fitted effect of over 55% in size; further: potency means the concentration at half of the fitted maximal effect
Conditions: Gynecologic cancer cell panel viability, ATPlite luminescence, 48 h; series mostly up to 57.5 µM
Results filed as inconclusive are left out. Active and inactive are the calls of the source. The call rests on the fitted dose curve; in most records, active means well fitted cell-killing curve with a large enough effect; inconclusive means small, poorly fitted or top-dose-only effect, or effect the other way; inactive means flat fitted curve, though single readings scatter.
Measurement type: Potency

Take a look at these entries with their results.
Briefly, Potency measured for CC(C)NC[C@@H](O)COc1cccc2ccccc12 : inactive

Entry CC(=O)OCC(=O)[C@@]1(OC(C)=O)[C@@H](C)C[C@H]2[C@@H]3C[C@H](F)C4=CC(=O)C=C[C@]4(C)[C@@]3(F)[C@@H](O)C[C@@]21C ; Potency = inactive

O=C(O)CNC(=O)c1ccccc1 has a reported Potency of inactive

Documented Potency of Oc1ccc(Cl)cc1Sc1cc(Cl)ccc1O : inactive

Note to self: Potency recorded for CN(C)C(=S)SC(=S)N(C)C was 7.94 µM (active)

Notebook: CCCCCCCCCCCCCCCC[N+](C)(C)CC , Potency read as 22.4 µM (active)

Further cases:
Value of measured Potency for the entry Cc1cc2c(cc1CC(=O)c1sccc1S(=O)(=O)Nc1onc(C)c1Cl)OCO2 : inactive

Summary for this compound, Cc1ccc(C(=O)C(C)CN2CCCCC2)cc1 (stereo not given) : Potency is inactive

Briefly, Potency measured for COc1cc2c(cc1OC)[C@@H]1CC(=O)[C@@H](CC(C)C)CN1CC2 : inactive

The compound listed as CCCCCCCCCCCCCCNCCO shows Potency equal to inactive

---

System: Tov112D
Assay: Primary qHTS to identify gynecologic anti-cancer compounds using libraries of approved drugs and bioactive compounds (AID 1345084); further: nearly all actives have a fitted effect of over 55% in size
Details: Gynecologic cancer cell panel viability, ATPlite luminescence, 48 h; series mostly up to 57.5 µM
Inconclusive results are not listed. Active and inactive are the calls of the source. Calls follow the shape of the dose curve; as a rule, active = well fitted cell-killing curve with a large enough effect; inconclusive = small, poorly fitted or top-dose-only effect, or effect the other way; inactive = flat fitted curve, though single readings scatter.
Use one of these outcomes when replying: label 1 = active, label 0 = inactive

See these solved cases before continuing.
Data request: Test call, this compound: CC(CCc1ccccc1)NCC(O)c1ccc(O)c(C(N)=O)c1 (stereo unspecified)
Data returned: label 0

Data request: What was the test verdict on CN1C(CCl)Nc2cc(Cl)c(S(N)(=O)=O)cc2S1(=O)=O (stereo unspecified) ?
Data returned: label 0

Data request: Field: outcome | Entry: Nc1nc2ncc(CNc3ccc(C(=O)N[C@@H](CCC(=O)O)C(=O)O)cc3)nc2c(=O)[nH]1
Data returned: label 0

Data request: Can you look up the reported call for COc1ccc(/C=C/C(=O)c2ccc(OC)cc2OC)cc1 for me?
Data returned: label 0

Data request: Call for entry CC(C)n1nc(-c2cc3cc(O)ccc3[nH]2)c2c(N)ncnc21 :
Data returned: label 1

Data request: Hi, sorry to bother you, what did the test record for COc1cc(N)c(Cl)cc1C(=O)NC1CCN(CCCOc2ccc(F)cc2)CC1OC (stereo unspecified) ?
Data returned: label 0

Further cases:
Data request: Kindly provide the recorded test outcome for the following compound: CCCC(=O)Nc1ccc(OCC(O)CNC(C)C)c(C(C)=O)c1 (stereo unspecified)
Data returned: label 0

Data request: Hi, do you know how CN1CCC(=C2c3ccccc3Sc3ccccc32)CC1 came out in this test?
Data returned: label 0

Data request: Could you check what this test reported for CC1(C)O[C@@H]2C[C@H]3[C@@H]4C[C@H](F)C5=CC(=O)CC[C@]5(C)[C@H]4[C@@H](O)C[C@]3(C)[C@]2(C(=O)CO)O1 ?
Data returned: label 0

Data request: Hi team, can someone confirm the assay call for CCCCCCCCCCCCCCCC[N+](C)(C)CCN(Cc1ccc(OC)cc1)c1ncccn1 ?
Data returned: label 1

Data request: Which outcome was assigned to CC1=C(C(=O)O)N2C(=O)[C@@H](NC(=O)[C@H](N)c3ccc(O)cc3)[C@H]2SC1 in this test?
Data returned: label 0

Data request: Which result was noted for this compound in the test: CCCSS/C(CCO)=C(\C)N(C=O)Cc1cnc(C)nc1N
Data returned: label 0

Data request: Lab log entry: C[C@@H]1C[C@H]2[C@@H]3CCC4=CC(=O)C=C[C@]4(C)[C@@]3(F)[C@@H](O)C[C@]2(C)[C@H]1C(=O)CO — outcome as called in the assay?
Data returned: label 0

Data request: What did the test return for NC(CS)C(=O)O (stereo unspecified) ?
Data returned: label 0

Data request: Can you look up the reported call for O=C(O)CCCCC(=O)O for me?
Data returned: label 0

Data request: Please indicate how the test categorized CCCCCC=CCC=CCCCCCCCC(=O)OCC .
Data returned: label 0

Data request: Recorded call for CNC(=O)CN(CCN(CCN(CC(=O)[O-])CC(=O)NC)CC(=O)[O-])CC(=O)[O-].O.[Gd+3] ?
Data returned: label 0

Data request: For CCCCCCc1ccc(O)cc1O , what call appears in the results of this test?
Data returned: label 0

Data request: Please share the test call associated with C=CCc1ccc(O)c(OC)c1 .
Data returned: label 0

Data request: Could you check what this test reported for CCC(C(=O)OCCN(CC)CC)c1ccccc1 (stereo unspecified) ?
Data returned: label 0

Data request: Test call, this compound: CC(=O)OCC(=O)[C@@]12N=C(C)O[C@@H]1C[C@H]1[C@@H]3CCC4=CC(=O)C=C[C@]4(C)[C@H]3[C@@H](O)C[C@@]12C
Data returned: label 0

Data request: Could you please tell me the result logged for O=C(Nc1ccc(Cl)c(Cl)c1)C1CC1 in this assay?
Data returned: label 0

Data request: Hi, do you know how CCCCc1nc(Cl)c(CO)n1Cc1ccc(-c2ccccc2-c2nn[nH]n2)cc1 came out in this test?
Data returned: label 0

Data request: Dear all, I need the recorded test outcome for O=C(CCCN1CCC(O)(c2ccc(Br)cc2)CC1)c1ccc(F)cc1 , thank you.
Data returned: label 0

Data request: Which outcome was assigned to O=C1OCCN1/N=C/c1ccc([N+](=O)[O-])o1 in this test?
Data returned: label 0
